For each of the compounds below, state its molar heat capacity at constant pressure.
test: molar heat capacity at constant pressure; conditions: 315.15 K; 101.33 kPa; Crystal; Small sample (50 mg) DSC
I only need the number, in J/K/mol, no unit after it.

(Q) Give its molar heat capacity at constant pressure value. Item: `O=C(O)Cc1cccs1`
(A) 168.5

(Q) Param item = `O=S1(=O)CCSCC1` ; retrieve measured molar heat capacity at constant pressure.
(A) 160.5

(Q) Form field: reported molar heat capacity at constant pressure of `O=C(O)c1ccc(C(=O)O)s1`
(A) 173.1

(Q) Can you share its molar heat capacity at constant pressure? I mean this compound: O=S1(=O)CCCOC1 [1,3-oxathiane-3,3-dioxide]
(A) 161.5

(Q) State the recorded molar heat capacity at constant pressure for this entry: `O=C(O)Cc1ccsc1`
(A) 178.8

====

test: molar heat capacity at constant pressure; settings: 275.15 K; 101.33 kPa; Crystal; Small sample (50 mg) DSC
For each entry below, report its molar heat capacity at constant pressure value.
Numbers only here, please. The scale is J/K/mol.

(Q) Data request, read-out molar heat capacity at constant pressure, for `O=C(O)Cc1cccs1`
(A) 149.6

(Q) Endpoint output: molar heat capacity at constant pressure of `O=S1(=O)CCSCC1` . Value?
(A) 143.8

(Q) Item under review: `CC(=O)c1ccsc1` . Reported molar heat capacity at constant pressure?
(A) 136.7

(Q) molar heat capacity at constant pressure lookup needed for `O=C(O)Cc1ccsc1` , thanks.
(A) 155.6

(Q) Reported molar heat capacity at constant pressure, molecule `c1csc(-c2cccs2)c1` : ____
(A) 182.4

(Q) Look up molar heat capacity at constant pressure: O=S1(=O)CCCOC1 [1,3-oxathiane-3,3-dioxide]
(A) 136.5

====

conditions: Crystal; DTA
Numbers after ± are expanded uncertainties.
test.readout: Normal melting temperature
State the value with its unit after it.

(Q) I'd like to know its Normal melting temperature. The compound in question is c1csc(-c2cccs2)c1 [2,2'-bithienyl]
(A) 31.1 ± 0.5 °C

(Q) Normal melting temperature lookup needed for O=S1(=O)CCSCC1 [1,4-dithiane sulfone] , thanks.
(A) 201.1 ± 0.5 °C

(Q) Consider the compound shown here: O=S1(=O)CCCOC1 [1,3-oxathiane-3,3-dioxide] What is its recorded Normal melting temperature?
(A) 79.8 ± 2 °C

(Q) Form field: reported Normal melting temperature of O=C(O)Cc1cccs1 [2-thiopheneacetic acid]
(A) 64.2 ± 0.5 °C

(Q) Given O=C(O)Cc1ccsc1 [3-thiopheneacetic acid] , state its recorded Normal melting temperature.
(A) 80.2 ± 0.5 °C

(Q) Fill in the blank: the reported Normal melting temperature of CC(=O)c1ccsc1 [3-acetylthiophene] is ____.
(A) 60.5 ± 0.5 °C

====

Could you please report measured molar heat capacity at constant pressure for the items listed next?
assay: molar heat capacity at constant pressure; conditions: 268.15 K; 101.33 kPa; Crystal; Small sample (50 mg) DSC
Express it in J/K/mol; write the number only.

(Q) Which molar heat capacity at constant pressure value is on record for O=C(O)Cc1cccs1 [2-thiopheneacetic acid] ?
(A) 146.3

(Q) I'd like to know its molar heat capacity at constant pressure. The compound in question is O=S1(=O)CCSCC1 [1,4-dithiane sulfone]
(A) 141

(Q) What value of molar heat capacity at constant pressure has been reported for the following compound? O=S1(=O)CCCOC1 [1,3-oxathiane-3,3-dioxide]
(A) 133.2

(Q) Returns the measured molar heat capacity at constant pressure for the input compound. Input: O=C(O)Cc1ccsc1 [3-thiopheneacetic acid]
(A) 151.1

(Q) Bench note: what molar heat capacity at constant pressure did CC(=O)c1ccsc1 [3-acetylthiophene] show?
(A) 134

====

assay: molar heat capacity at constant pressure; conditions: 335.15 K; 101.33 kPa; Crystal; Small sample (50 mg) DSC
Numbers after ± are expanded uncertainties.
Assignment: determine reported molar heat capacity at constant pressure for the given compounds.
Answer format: value, then unit.

(Q) Endpoint output: molar heat capacity at constant pressure of O=S1(=O)CCCOC1 [1,3-oxathiane-3,3-dioxide] . Value?
(A) 176.3 ± 3.5 J/K/mol

(Q) Suppose we examine the compound `O=C(O)c1ccc(C(=O)O)s1` ; what molar heat capacity at constant pressure value has been reported?
(A) 179.7 ± 3.6 J/K/mol

(Q) Look up molar heat capacity at constant pressure: `O=S1(=O)CCSCC1`
(A) 168.9 ± 3.4 J/K/mol

(Q) Look at this compound and give its reported molar heat capacity at constant pressure. `O=C(O)Cc1ccsc1`
(A) 193.9 ± 3.9 J/K/mol

====

assay: molar heat capacity at constant pressure; details: 330.15 K; 101.33 kPa; Crystal; Small sample (50 mg) DSC
For each of the compounds below, state its molar heat capacity at constant pressure.
Just the number in J/K/mol, nothing appended.

(Q) Fill blank: measured molar heat capacity at constant pressure of the compound O=C(O)c1ccc(C(=O)O)s1 [2,5-thiophenedicarboxylic acid] is ____.
(A) 178.1

(Q) What value of molar heat capacity at constant pressure has been recorded for this entry: O=C(O)Cc1ccsc1 [3-thiopheneacetic acid]
(A) 190.6

(Q) Using the record for O=S1(=O)CCSCC1 [1,4-dithiane sulfone] , report its molar heat capacity at constant pressure.
(A) 167.5

(Q) For the compound O=S1(=O)CCCOC1 [1,3-oxathiane-3,3-dioxide] , what molar heat capacity at constant pressure is on record?
(A) 171.7

====

assay: molar heat capacity at constant pressure; details: 320.15 K; 101.33 kPa; Crystal; Small sample (50 mg) DSC
test.readout: molar heat capacity at constant pressure (J/K/mol)
Numeric only. Scale: J/K/mol

(Q) Which molar heat capacity at constant pressure value belongs to O=C(O)Cc1cccs1 [2-thiopheneacetic acid] ?
(A) 170.5

(Q) # input molecule: O=S1(=O)CCCOC1 [1,3-oxathiane-3,3-dioxide] ; wanted: its molar heat capacity at constant pressure
(A) 164.8

(Q) Quick one: molar heat capacity at constant pressure for O=S1(=O)CCSCC1 [1,4-dithiane sulfone] ?
(A) 163

(Q) Given the entry O=C(O)c1ccc(C(=O)O)s1 [2,5-thiophenedicarboxylic acid] , report its measured molar heat capacity at constant pressure.
(A) 175.1

(Q) Param item = O=C(O)Cc1ccsc1 [3-thiopheneacetic acid] ; retrieve measured molar heat capacity at constant pressure.
(A) 182.7

====

Task for the reader: assign each of the following molecules its reported molar heat capacity at constant pressure.
test: molar heat capacity at constant pressure; conditions: 285.15 K; 101.33 kPa; Crystal; Small sample (50 mg) DSC
A number alone suffices; assume J/K/mol.

(Q) Would you mind telling me what molar heat capacity at constant pressure value was observed for O=S1(=O)CCCOC1 [1,3-oxathiane-3,3-dioxide] ?
(A) 140.6

(Q) Which molar heat capacity at constant pressure is listed for O=C(O)c1ccc(C(=O)O)s1 [2,5-thiophenedicarboxylic acid] ?
(A) 163.7

(Q) # query: molar heat capacity at constant pressure of entry CC(=O)c1ccsc1 [3-acetylthiophene]
(A) 140.3

(Q) What measured molar heat capacity at constant pressure goes with O=S1(=O)CCSCC1 [1,4-dithiane sulfone] ?
(A) 148.1

(Q) What value of measured molar heat capacity at constant pressure is listed for O=C(O)Cc1ccsc1 [3-thiopheneacetic acid] ?
(A) 160.8

(Q) Name the reported molar heat capacity at constant pressure value associated with the molecule O=C(O)Cc1cccs1 [2-thiopheneacetic acid]
(A) 153.4

(Q) Name the recorded molar heat capacity at constant pressure for c1csc(-c2cccs2)c1 [2,2'-bithienyl] .
(A) 189.3

====

assay: molar heat capacity at constant pressure; conditions: 310.15 K; 101.33 kPa; Crystal; Small sample (50 mg) DSC
Numbers after ± are expanded uncertainties.
For each record, write down the corresponding molar heat capacity at constant pressure.
Entry format: amount then unit.

(Q) Give the measured molar heat capacity at constant pressure of O=S1(=O)CCCOC1 [1,3-oxathiane-3,3-dioxide] .
(A) 158.6 ± 3.2 J/K/mol

(Q) Query (compound): `O=C(O)Cc1ccsc1` ; field requested: molar heat capacity at constant pressure
(A) 175.3 ± 3.5 J/K/mol

(Q) For `O=S1(=O)CCSCC1` , what is its reported molar heat capacity at constant pressure?
(A) 158.1 ± 3.2 J/K/mol

(Q) Look up molar heat capacity at constant pressure: `O=C(O)Cc1cccs1`
(A) 166.1 ± 3.3 J/K/mol

(Q) Name the reported molar heat capacity at constant pressure value associated with the compound `O=C(O)c1ccc(C(=O)O)s1`
(A) 171 ± 3.4 J/K/mol

====

assay: molar heat capacity at constant pressure; conditions: 298.15 K; 101.33 kPa; Crystal; Small sample (50 mg) DSC
Exercise: state measured molar heat capacity at constant pressure for each of the compounds provided.
Please respond with the number in J/K/mol and leave the unit unwritten.

(Q) I am curious: what molar heat capacity at constant pressure value has been reported for CC(=O)c1ccsc1 [3-acetylthiophene] ?
(A) 146.1

(Q) Given O=S1(=O)CCCOC1 [1,3-oxathiane-3,3-dioxide] , state its recorded molar heat capacity at constant pressure.
(A) 148.1

(Q) What value of molar heat capacity at constant pressure has been reported for the following compound? O=C(O)Cc1cccs1 [2-thiopheneacetic acid]
(A) 159.2

(Q) Any idea what molar heat capacity at constant pressure was measured for O=S1(=O)CCSCC1 [1,4-dithiane sulfone] ?
(A) 152.7

(Q) Reported molar heat capacity at constant pressure, compound O=C(O)c1ccc(C(=O)O)s1 [2,5-thiophenedicarboxylic acid] : ____
(A) 167.1

(Q) What does the record list as molar heat capacity at constant pressure for c1csc(-c2cccs2)c1 [2,2'-bithienyl] ?
(A) 205.5

(Q) Item O=C(O)Cc1ccsc1 [3-thiopheneacetic acid] has what recorded molar heat capacity at constant pressure?
(A) 168.4
